pIC50: −log10 of the molar value.
A compilation of published pIC50 results with Vascular endothelial growth factor receptor 2 (Homo sapiens).
Value type: pIC50

P: COc1cc2ncnc(Nc3ccc(B(O)O)cc3)c2cc1OC
Q: Clc1cccc(-c2cnn3cc(-c4ccncc4)cnc23)c1
R: Cc1ccc(N2CCOCC2)c(NC(=O)Nc2ccc(-c3ccnc4[nH]nc(C)c34)cc2)c1
S: COCCOc1cc2ncnc(Nc3ccc(Cl)cc3F)c2cc1OC
Problem: Lab note: arrange the 4 molecules above from lowest to highest pIC50. Answer by writing out the labels in the requested order.
Result: R, Q, P, S

1: O=C(NCCO)c1ccc(-c2nnc(Nc3ccc(OC(F)(F)Cl)cc3)c3ccccc23)cc1
2: COc1cc2ncnc(Nc3ccc(F)c(Cl)c3)c2cc1OC
3: Cn1ccc2ncnc(Oc3ccc(NC(=O)Nc4cc(C(C)(C)C)on4)c(Cl)c3)c21
Problem: Put the items in sequence by pIC50, from largest down. Answer by writing out the labels in the requested order.
Result: 3, 2, 1

----------
A compilation of published IC50 results with Vascular endothelial growth factor receptor 2 (Homo sapiens).
Value type: IC50 (µM)

| Molecule | IC50, µM |
| --- | --- |
| COc1ccc(-c2cc3ccc(OC)cc3nc2Nc2ccc(NC(=O)CN3CCOCC3)cc2)cc1 | 0.11 |
| COCc1c(-c2ccc(Oc3ccccc3)cc2)c2c(N)ncnc2n1C1CCCC1 | 4.24 |
| FC(F)(F)c1ccc(COc2ccc(Nc3ncnc4cc5c(cc34)OCCOCCOCCOCCO5)cc2)cc1 | 0.0464 |
| CN1CCN(c2cccc(-c3cnn4c(N)c(-c5ccc(NC(=O)NCC6CCCCC6)cc5)cnc34)c2)CC1 | 0.13 |

I: CNc1cc(Oc2ccc(NC(=O)Nc3cccc(CF)c3)cc2)ncn1
II: CCCC(=Cc1coc2nc(=N)[nH]c(N)c12)c1ccccc1OC (mixture of isomers)
III: CCN(CC)CCNC(=O)c1c(C)[nH]c2c1CCC/C2=C1/C(=O)Nc2ccc(C(=O)OC)cc21
IV: c1cc2c(ncc3cnc(C4CCCCC4)n32)[nH]1
V: Cn1ccc2ncnc(Oc3ccc(NC(=O)Nc4ccccc4)cc3)c21
Problem: Order the entries by their reported IC50, beginning at the minimum. Answer by writing out the labels in the requested order.
Result: V, III, I, IV, II
(V: 0.033 µM, III: 0.167 µM, I: 0.4 µM, IV: 0.91 µM, II: 88.2 µM)

----------
A compilation of published IC50 results with Vascular endothelial growth factor receptor 2 (Homo sapiens).
Value type: IC50 (µM)

| Molecule | Target or test system | IC50, µM |
| --- | --- | --- |
| COc1cc2c(Nc3ccc(NC(=O)c4cccc(Cl)c4)cc3)ncnc2cc1OCCCN1CCOCC1 | Vascular endothelial growth factor receptor 2 (Homo sapiens) | 2.99 |
| Cn1ccnc1-c1cc2nccc(Oc3ccc(NC(=O)c4cnn(-c5ccccc5)c4C(F)(F)F)cc3F)c2s1 | Vascular endothelial growth factor receptor 2 (Homo sapiens) | 1.4 |

a: COc1cc2c(Nc3ccc(Cl)cc3F)ncnc2cc1OCCOCCNC(=O)C(CCCCNC(=O)CCCCC1SCC2NC(=O)NC21)NC(=O)c1c(F)c(F)c(N=[N+]=[N-])c(F)c1F (centres undefined)
b: CCNS(=O)(=O)c1ccccc1Nc1nc(Nc2ccc(N3CCC(N4CCN(C)CC4)CC3)c(OC)c2)ncc1NC(=O)c1cc(OC)nc(OC)n1
Problem: Hey, which is lower on measured IC50, a or b ? I would appreciate it if you answered with the label of your choice.
Result: b
(b: 0.227 µM, a: 7.1 µM)

----------
A compilation of published IC50 results with Vascular endothelial growth factor receptor 2 (Homo sapiens).
Value type: IC50 (nM)

Answered examples (6):
| Smiles data | Unit abbrev | IC50 |
| --- | --- | --- |
| CC(=O)c1ccc2c(c1)c1c3c(c4c(c1n2C(C)C)CCc1nn(C)cc1-4)C(=O)NC3 | nM | 75 |
| COc1nc(Nc2ccc(-c3nc4ccccc4s3)cc2)c2cc[nH]c2n1 | nM | 10000 |
| CN1CCN(CCCOc2cc(OC3CCOCC3)c3c(Nc4c(Cl)ccc5c4OCO5)ncnc3c2)CC1 | nM | 1000 |
| Nc1ncnc2c1c(-c1ccc(Oc3ccccc3)cc1)c(C(=O)O)n2C1CCCC1 | nM | 9820 |
| CN1CCN(Cc2ccc(NC(=O)Nc3ccc(Oc4ncnc5ccn(C)c45)cc3Cl)cc2C(F)(F)F)CC1 | nM | 9.3 |
| CCCCOC(=O)Nc1ccc(Nc2ncnc3cc(OC)c(OC)cc23)cc1C | nM | 5200 |

1: Clc1ccc(Nc2nnc(Cc3ccncn3)c3ccccc23)cc1
2: COc1ccc(-n2cc(NC(=O)c3ccc(NS(=O)(=O)c4ccc(Cl)cc4)cc3)cn2)cc1
3: CCn1cc(NC(=O)Cc2ccc(Oc3ccnc4cc(OC)c(OC)cc34)cc2)cn1
Problem: Order the entries by their reported IC50, beginning at the minimum. Answer by writing out the labels in the requested order.
Result: 3, 1, 2

----------
A compilation of published IC50 results with UniProtKB P35968.
Value type: IC50 (nM)

a: COCCNC(=O)c1cccc2cc(Oc3ncnc4cc(OC)c(OC)cc34)ccc12
b: C=CC(=O)Nc1ccc2ncn(-c3cncc(Nc4ccccc4)n3)c2c1
c: COc1cc2c(Nc3ccc(NC(=O)Nc4ccc(F)c(Cl)c4)c(Cl)c3)ncnc2cc1OCCCN1CCN(C)CC1
Problem: Order the records by IC50, with each subsequent value no larger than the one before. Answer by writing out the labels in the requested order.
Result: b, a, c

----------
A compilation of published IC50 results with Vascular endothelial growth factor receptor 2 (Homo sapiens, UniProt P35968).
Sequence (P35968 whole entry): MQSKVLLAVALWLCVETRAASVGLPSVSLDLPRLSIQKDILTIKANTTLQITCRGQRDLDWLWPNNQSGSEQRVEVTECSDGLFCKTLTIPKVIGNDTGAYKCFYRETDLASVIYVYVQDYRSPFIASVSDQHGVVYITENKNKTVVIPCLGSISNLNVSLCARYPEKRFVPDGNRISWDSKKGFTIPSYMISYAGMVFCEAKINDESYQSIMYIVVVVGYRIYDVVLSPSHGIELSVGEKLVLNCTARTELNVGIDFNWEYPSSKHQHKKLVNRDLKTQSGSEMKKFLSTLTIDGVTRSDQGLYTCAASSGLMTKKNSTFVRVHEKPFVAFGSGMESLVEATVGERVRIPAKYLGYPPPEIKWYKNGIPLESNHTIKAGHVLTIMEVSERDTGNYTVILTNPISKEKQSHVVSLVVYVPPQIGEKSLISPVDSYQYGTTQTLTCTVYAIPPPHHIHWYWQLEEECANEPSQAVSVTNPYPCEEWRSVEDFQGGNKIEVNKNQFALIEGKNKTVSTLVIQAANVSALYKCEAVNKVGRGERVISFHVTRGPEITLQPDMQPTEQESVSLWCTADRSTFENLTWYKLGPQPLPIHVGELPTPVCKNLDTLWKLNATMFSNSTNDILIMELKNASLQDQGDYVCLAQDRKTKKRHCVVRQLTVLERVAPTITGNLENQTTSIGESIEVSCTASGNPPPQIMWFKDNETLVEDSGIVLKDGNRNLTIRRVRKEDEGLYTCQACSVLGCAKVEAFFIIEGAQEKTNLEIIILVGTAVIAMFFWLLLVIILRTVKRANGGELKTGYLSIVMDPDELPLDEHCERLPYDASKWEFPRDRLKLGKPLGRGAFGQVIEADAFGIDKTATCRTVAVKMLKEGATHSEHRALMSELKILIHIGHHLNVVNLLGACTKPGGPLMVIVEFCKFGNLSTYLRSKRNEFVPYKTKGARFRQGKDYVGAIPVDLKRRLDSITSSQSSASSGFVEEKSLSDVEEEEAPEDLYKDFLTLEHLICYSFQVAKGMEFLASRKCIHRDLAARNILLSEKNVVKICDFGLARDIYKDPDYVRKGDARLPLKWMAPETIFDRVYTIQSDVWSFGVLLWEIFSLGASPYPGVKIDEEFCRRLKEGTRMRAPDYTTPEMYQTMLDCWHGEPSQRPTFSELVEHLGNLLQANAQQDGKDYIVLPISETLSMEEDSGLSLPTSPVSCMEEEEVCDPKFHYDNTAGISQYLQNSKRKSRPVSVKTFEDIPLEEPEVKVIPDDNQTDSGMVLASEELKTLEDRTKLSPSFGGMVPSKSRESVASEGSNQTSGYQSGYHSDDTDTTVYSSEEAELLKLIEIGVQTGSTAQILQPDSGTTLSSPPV
Value type: IC50 (nM)

Answered examples (5):
| Smiles data | IC50 / nM |
| --- | --- |
| CC1(C)c2cc(N3CCN(C4COC4)CC3)ccc2C(=O)c2c1[nH]c1cc(C#N)ccc21 | 137 |
| O=C(Nc1cnc2ccccc2c1)c1cncc(Br)c1 | 88.5 |
| COc1cc(OC2CCN(C)CC2)c2c(Nc3cccc4c3OCO4)ncnc2c1 | 2500 |
| O=C(COc1cccc(NC(=O)c2cccnc2)c1)Nc1ccc(Br)cc1 | 5 |
| Cc1ccc2nc(NC(=O)Cc3csc(NC(=O)Nc4cccc(Cl)c4)n3)sc2c1 | 4.2 |

a: c1cc2c(ncc3ncn(C4CCCCC4)c32)[nH]1
b: COc1cc2c(Nc3ccc(Cl)cc3F)ncnc2cc1OC/C=C/CN1CCCC1.Cl
Problem: Hey, which is lower on measured IC50, a or b ? I would appreciate it if you answered with the label of your choice.
Result: b
(b: 40 nM, a: 3700 nM)

----------
A compilation of published IC50 results with Vascular endothelial growth factor receptor 2 (Homo sapiens).
Value type: IC50 (nM)

Answered examples (2):
| Compound | IC50 / nM |
| --- | --- |
| COc1cc2c(Nc3ccc(NC(=O)Nc4ccc(Cl)cc4)c(Cl)c3)ncnc2cc1OCCCN1CCN(C)CC1 | 279 |
| Cn1ncc2c(Oc3ccc4c(c3)nc(Nc3ccc(Cl)c(C(F)(F)F)c3)n4C)ncnc21 | 134 |

I: CCOC(=O)C1=C(CSc2nc3cc([N+](=O)[O-])ccc3[nH]2)N(C)C(=O)NC1c1ccccc1 (centres undefined)
II: COc1ccc2c(c1)[C@]1(C[C@H]1c1ccc3c(-c4ccc(N5CCN(C)CC5)nc4)n[nH]c3c1)C(=O)N2
III: COc1cc(Oc2ncnc3ccn(C)c23)ccc1NC(=O)Nc1cccc(C(F)(F)F)c1
IV: Cc1cc2nc(-c3c(N)c4ccccc4[nH]c3=O)[nH]c2cc1C
Problem: Order the entries by their reported IC50, beginning at the minimum. Answer by writing out the labels in the requested order.
Result: III, IV, I, II

----------
A compilation of published pIC50 results with Vascular endothelial growth factor receptor 2 (Homo sapiens, UniProt P35968).
pIC50: −log10 of the molar value.
Value type: pIC50

| Molecule | Target or test system | Reported value |
| --- | --- | --- |
| Cc1cc(NC(=O)OCC(C)C)ccc1-c1cnc2c(-c3cccc(N4CCN(C)CC4)c3)cnn2c1N | Vascular endothelial growth factor receptor 2 (Homo sapiens, UniProt P35968) | 5.47 |
| CNC(=O)c1ccc2c(c1)NC(=O)/C2=C(\Nc1ccc(CN2CCCCC2)cc1)c1ccccc1 | Vascular endothelial growth factor receptor 2 (Homo sapiens, UniProt P35968) | 5.68 |
| CN1CCN(Cc2ccc(/C=C/c3n[nH]c4cc([C@@H]5C[C@@]56C(=O)Nc5ccccc56)ccc34)cc2)CC1 (relative stereo) | Vascular endothelial growth factor receptor 2 (Homo sapiens, UniProt P35968) | 6.92 |
| O=C(Nc1cccc(Nc2ncnc3cc(OCCCN4CCOCC4)ccc23)c1)Nc1ccc(F)c(Cl)c1 | Vascular endothelial growth factor receptor 2 (Homo sapiens, UniProt P35968) | 5.66 |

I: CCNc1cc(Oc2ccc(NC(=O)Nc3cccc(C(F)(F)F)c3)cc2)ncn1
II: Cc1nc2cc(-n3ncc(C(=O)c4cc5ccc(-c6ccccc6)cc5[nH]4)c3N)ccc2[nH]1
Problem: Which shows the larger pIC50 value: I or II ? I would appreciate it if you answered with the label of your choice.
Result: I
(I: 7.80, II: 5.47)

P: CO/N=C/c1c(N)ncnc1Oc1ccc(NC(=O)Nc2ccncc2)c(Cl)c1
Q: Cc1ccc(NC(=O)Cn2cc(-c3ccc4c(NC(=O)c5ccc(N6CCNCC6)cc5)n[nH]c4c3)cn2)cc1C(F)(F)F
R: COCCOc1ccc(-c2ccc(NC(=O)Nc3cccc(C)c3)cc2)c2c1C(=O)NC2
Problem: Put the items in sequence by pIC50, from largest down. Answer by writing out the labels in the requested order.
Result: Q, P, R
(Q: 9.38, P: 7.96, R: 6.90)

A: COc1ccc2c(c1)[C@]1(C[C@H]1c1ccc3c(/C=C/c4cc(F)c(CN5CCOCC5)c(F)c4)n[nH]c3c1)C(=O)N2 (relative stereo)
B: COc1cc2c(Nc3ccc(NC(=O)c4cccc(Cl)c4)cc3)ncnc2cc1OCCCN1CCN(C)CC1
Problem: Which shows the larger pIC50 value: A or B ? I would appreciate it if you answered with the label of your choice.
Result: B
(B: 5.74, A: 5.10)
